Hey, just so you know, these numbers are from paper PMC6364417.

- Test system: A375-GP cells (Dabrafenib-resistant)
- assay-explanation: Kinase inhibitor library screening, PrestoBlue cell viability, 1 or 10 μM, 72 h
- measurement-setup: A375 GP, 10μΜ, 72 h; in %
Note: every record was labeled by where its cell viability, A375 GP, 10μΜ sits among class 1 = under 20, class 2 = from 20 up to 80, class 3 = 80 and over

Some solved cases for reference:
O=C1NC(=O)C(c2ccccc2[N+](=O)[O-])=C1Nc1ccc(O)c(Cl)c1: class 3
COc1cc2ncnc(Nc3ccc(F)c(Cl)c3)c2cc1NC(=O)/C=C/CN1CCCCC1: class 1
C#Cc1cccc(Nc2ncnc3cc(OCCOC)c(OCCO)cc23)c1 [OSI-420 (Desmethyl Erlotinib)]: class 3
CN(c1ncccc1CNc1nc(Nc2ccc3c(c2)CC(=O)N3)ncc1C(F)(F)F)S(C)(=O)=O: class 1
O=C(NOCC1CC1)c1ccc(F)c(F)c1Nc1ccc(I)cc1Cl: class 1

Field: next compound
Prompt: Lab log: "CCO.N#CC(=C(/N)Sc1ccccc1N)/C(C#N)=C(\N)Sc1ccccc1N" — assign cell viability, A375 GP, 10μΜ category
Response: class 2
